# ASSAY_METHOD_TEXT: gradient 5% acetonitrile 3 min, to 50% in 2 min, to 85% in 15 min, held 3 min, 100 µL/min
# STUDY_CONDITIONS: column: Zorbax Extend-C18 2.1 x 50 mm; eluents: water / acetonitrile, 0.1% formic acid
QUANTITY: RP-LC retention time (s)

{"MOLECULE": "CCN1CCC(N(Cc2ccc3c(c2)OCO3)C(=O)Nc2cc(C)ccc2OC)CC1", "RP-LC retention time (s)": 706}
{"MOLECULE": "CCN1C(=O)COc2ccc(-c3nc(NC(=O)c4ccncc4)sc3C)cc21", "RP-LC retention time (s)": 768}
{"MOLECULE": "Cc1oc(C2CCN(C(=O)COc3ccccc3)CC2)nc1C(=O)N1CCCCC1", "RP-LC retention time (s)": 796}
{"MOLECULE": "COc1ccc(CNC(=O)C2CCCN(c3ccc(=O)n(-c4cccc(Cl)c4)n3)C2)cc1OC (stereo not drawn)", "RP-LC retention time (s)": 798}
{"MOLECULE": "Cc1ccnn1-c1ccc(SCC(=O)Nc2ccc(F)cc2F)nn1", "RP-LC retention time (s)": 893}

[I] CC(CNC(=O)CCn1c(N2CCCC2)nc2ccsc2c1=O)c1ccccc1 (stereo not drawn)
[II] Cc1cccc(-c2[nH]ncc2CN)c1
Input: // compare measured RP-LC retention time, left I , right II , return larger Use the label to indicate which entry you chose.
Output: I
(I: 819 s, II: 561 s)

[A] CCCc1cc(C2CCCN2C(=O)Nc2ccccc2OC)no1 (stereo not drawn)
[B] CO[C@H]1CN(C2CCN(S(=O)(=O)c3ccc(C#N)cc3)CC2)[C@H]1c1cccnc1
Input: // compare measured RP-LC retention time, left A , right B , return larger Use the label to indicate which entry you chose.
Output: A
(A: 901 s, B: 609 s)

---

# ASSAY_METHOD_TEXT: gradient 5% acetonitrile 3 min, to 50% in 2 min, to 85% in 15 min, held 3 min, 100 µL/min
# STUDY_CONDITIONS: column: Zorbax Extend-C18 2.1 x 50 mm; eluents: water / acetonitrile, 0.1% formic acid
QUANTITY: RP-LC retention time (s)

{"COMPOUND": "Cc1cc(C)c(CNC(=O)c2c(C)sc3ccn(C)c(=O)c23)c(C)c1", "UNIT_TAG": "s", "RP-LC retention time": 921}
{"COMPOUND": "Cc1noc(-c2cc(=O)n(CC(=O)Nc3cccc(Cl)c3C)c3ccccc23)n1", "UNIT_TAG": "s", "RP-LC retention time": 923}
{"COMPOUND": "Cc1cc(C)n(CC(=O)NC(C)c2ccccc2)c1-c1nc(C2CC2)no1 (stereo not drawn)", "UNIT_TAG": "s", "RP-LC retention time": 914}

---

# ASSAY_METHOD_TEXT: gradient 5% acetonitrile 3 min, to 50% in 2 min, to 85% in 15 min, held 3 min, 100 µL/min
# STUDY_CONDITIONS: column: Zorbax Extend-C18 2.1 x 50 mm; eluents: water / acetonitrile, 0.1% formic acid
QUANTITY: RP-LC retention time (s)

{"MOLECULE": "CN1c2ccccc2C(=O)NC12CCN(C(=O)NCc1ccccc1)CC2", "QUANTITY": "RP-LC retention time", "VALUE_OBSERVED": 705}
{"MOLECULE": "CN(C)S(=O)(=O)c1ccc2c(c1)N(CC(=O)NCCCc1ccccc1)C(=O)C1CCCCN21 (stereo unspecified)", "QUANTITY": "RP-LC retention time", "VALUE_OBSERVED": 955}
{"MOLECULE": "O=C(Cc1cccs1)Nc1nnc(Cc2ccc(F)cc2)o1", "QUANTITY": "RP-LC retention time", "VALUE_OBSERVED": 707}
{"MOLECULE": "O=C(Nc1ccc(F)cc1)C(=O)c1cn(CC(=O)N2CCCC2)c2ccccc12", "QUANTITY": "RP-LC retention time", "VALUE_OBSERVED": 954}
{"MOLECULE": "O=C1CC2(CCN(S(=O)(=O)c3ccc([N+](=O)[O-])cc3)CC2)Oc2ccccc21", "QUANTITY": "RP-LC retention time", "VALUE_OBSERVED": 907}
{"MOLECULE": "CC(=O)N1CCc2cc(CNS(=O)(=O)Cc3ccccc3)ccc21", "QUANTITY": "RP-LC retention time", "VALUE_OBSERVED": 750}
{"MOLECULE": "COC[C@@H]1CN(S(=O)(=O)c2cccc(C)c2)C[C@H]1c1ccccn1", "QUANTITY": "RP-LC retention time", "VALUE_OBSERVED": 651}
{"MOLECULE": "COc1ccccc1C(=O)Nc1c(-c2ccccc2)nc2ccccn12", "QUANTITY": "RP-LC retention time", "VALUE_OBSERVED": 597}
{"MOLECULE": "Cc1ccc(C)c(S(=O)(=O)N2CCC3(CC2)NCCCN=C3NC2CCCCC2)c1", "QUANTITY": "RP-LC retention time", "VALUE_OBSERVED": 648}
{"MOLECULE": "COc1ccc2[nH]c(C(=O)N3CCN(C(=O)c4ccc(Br)o4)CC3)cc2c1", "QUANTITY": "RP-LC retention time", "VALUE_OBSERVED": 784}
{"MOLECULE": "Clc1cccc(Cc2nc(-c3ccc4nncn4c3)no2)c1", "QUANTITY": "RP-LC retention time", "VALUE_OBSERVED": 827}

---

# ASSAY_METHOD_TEXT: gradient 5% acetonitrile 3 min, to 50% in 2 min, to 85% in 15 min, held 3 min, 100 µL/min
# STUDY_CONDITIONS: column: Zorbax Extend-C18 2.1 x 50 mm; eluents: water / acetonitrile, 0.1% formic acid
QUANTITY: RP-LC retention time (s)

{"COMPOUND": "O=C(c1ccccc1Cl)N1CCC(COCc2ccccc2)CC1", "UNIT_TAG": "s", "VALUE_OBSERVED": 979}
{"COMPOUND": "Cc1ccc(-c2nnc(Cc3nc(-c4ccc5c(c4)OCO5)no3)o2)cc1F", "UNIT_TAG": "s", "VALUE_OBSERVED": 1020}
{"COMPOUND": "O=C(NC1CCCCC1)N1CCCC1c1nc(-c2cccc(F)c2)no1 (stereo not drawn)", "UNIT_TAG": "s", "VALUE_OBSERVED": 984}
{"COMPOUND": "COc1ccccc1NC(=O)Cc1csc2nc(-c3ccccc3)cn12", "UNIT_TAG": "s", "VALUE_OBSERVED": 786}
{"COMPOUND": "Cc1cccc(C)c1N1CCN(C(=O)c2cccc(F)c2)CC1", "UNIT_TAG": "s", "VALUE_OBSERVED": 1030}
{"COMPOUND": "CCn1cc(C2=CCN(C(=O)Nc3cc(Cl)ccc3C)CC2)c2cccnc21", "UNIT_TAG": "s", "VALUE_OBSERVED": 999}
{"COMPOUND": "CC(C)Oc1ccc(-c2noc(CCn3nc(-c4ccc5c(c4)OCO5)ccc3=O)n2)cc1", "UNIT_TAG": "s", "VALUE_OBSERVED": 1020}
{"COMPOUND": "COc1ccc(S(=O)(=O)CCC(=O)N2CCCC2c2nc(-c3ccc(Cl)cc3)no2)cc1 (stereo not drawn)", "UNIT_TAG": "s", "VALUE_OBSERVED": 1000}

---

# ASSAY_METHOD_TEXT: gradient 5% acetonitrile 3 min, to 50% in 2 min, to 85% in 15 min, held 3 min, 100 µL/min
# STUDY_CONDITIONS: column: Zorbax Extend-C18 2.1 x 50 mm; eluents: water / acetonitrile, 0.1% formic acid
QUANTITY: RP-LC retention time (s)

{"COMPOUND": "Cc1ccn2cc(-c3ccc(NC(=O)Nc4ccc(Cl)cc4)cc3)nc2n1", "UNIT_TAG": "s", "VALUE_OBSERVED": 711}
{"COMPOUND": "Cc1ccc(C)c2c(=O)c3c([nH]c12)CCN(CC(=O)Nc1ccccc1Cl)C3", "UNIT_TAG": "s", "VALUE_OBSERVED": 656}
{"COMPOUND": "COc1ccc(-c2csc3c(=O)n(CC(C)C)cnc23)cc1", "UNIT_TAG": "s", "VALUE_OBSERVED": 1020}
{"COMPOUND": "CCOC(=O)c1nc(N2CCOCC2)c2c(-c3ccccc3Cl)noc2n1", "UNIT_TAG": "s", "VALUE_OBSERVED": 934}
{"COMPOUND": "Cn1nccc1-c1cccc(-c2noc(-c3ccc(F)cc3)n2)c1", "UNIT_TAG": "s", "VALUE_OBSERVED": 915}
{"COMPOUND": "CSc1ccc(CNC(=O)Cn2c(=O)cc(-c3nc(C)no3)c3ccccc32)cc1", "UNIT_TAG": "s", "VALUE_OBSERVED": 859}
{"COMPOUND": "COCCN(CC(=O)N1CCc2sccc2C1COc1cccc(F)c1)C(=O)C(C)C (configuration not stated)", "UNIT_TAG": "s", "VALUE_OBSERVED": 912}
{"COMPOUND": "COc1ccc(C2Cn3cnc(C(=O)N4CCC(C(=O)NC5CCCCCCC5)CC4)c3CO2)cc1 (configuration not stated)", "UNIT_TAG": "s", "VALUE_OBSERVED": 862}
{"COMPOUND": "COC(=O)C1=C(C)NC2=C(C(=O)c3ccccc32)C1c1ccccc1OC (configuration not stated)", "UNIT_TAG": "s", "VALUE_OBSERVED": 901}
{"COMPOUND": "CC(C)c1ccc(S(=O)(=O)N2C[C@@H](F)C[C@H]2C(=O)N2CCOCC2)cc1", "UNIT_TAG": "s", "VALUE_OBSERVED": 802}

[1] O=C(NCc1ccccc1)c1nnc(-c2ccc(S(=O)(=O)N3CCCCC3)cc2)o1
[2] CCn1ccc2cc(S(=O)(=O)N3CCC(C(=O)NCc4cccnc4)CC3)ccc21
Input: // compare measured RP-LC retention time, left 1 , right 2 , return larger Use the label to indicate which entry you chose.
Output: 1
(1: 953 s, 2: 653 s)

[1] COCc1noc([C@@H]2CN(C(=O)C3CC=CCC3)C[C@H]2C(N)=O)n1 (some centres not stated)
[2] COc1ccc2nc(NC(=O)Cc3csc4nc(-c5ccc(C)c(C)c5)cn34)sc2c1
Input: // compare measured RP-LC retention time, left 1 , right 2 , return larger Use the label to indicate which entry you chose.
Output: 2
(2: 885 s, 1: 610 s)

[a] CCn1cc(-c2ccc(Cl)cc2)cc1C(=O)NCc1cccnc1
[b] Cc1cc(C(=O)N(CCn2nc(C)cc2C)c2nc3c(C(C)C)cccc3s2)on1
Input: Which value of RP-LC retention time is smaller, the one for a or the one for b ? Use the label to indicate which entry you chose.
Output: a
(a: 738 s, b: 1200 s)

[P] CCn1cc(-c2ccc(Cl)cc2)cc1C(=O)NC(C)c1ccccn1 (configuration not stated)
[Q] O=C(NC1CCCCC1)C1CCc2ncc(-c3ccsc3)n2C1 (configuration not stated)
Input: // compare measured RP-LC retention time, left P , right Q , return larger Use the label to indicate which entry you chose.
Output: P
(P: 843 s, Q: 584 s)
